Here, each record is paired with measured cytotoxicity at 10 µM data.
# Tested on: blastic cells from AML patients
# Test: Inhibition of viability of fresh leukemic cells (trypan blue exclusion)
# Format: cell-based, human
# Condition parameters: Homo sapiens, AML3, 72 h, patient ID 9, FAB AML3; 10^-5 M; day 3; read-out: In Vitro Percent Inhibition of Viability
Write it as a number; the unit % goes unstated.

Known cytotoxicity at 10 µM results, listed for orientation:
OCCN1CCN(CCCN2c3ccccc3Sc3ccc(Cl)cc32)CC1 :: 35
CN[C@H]1CC[C@@H](c2ccc(Cl)c(Cl)c2)c2ccccc21 :: 79

Reported cytotoxicity at 10 µM for CN(C)CCCN1c2ccccc2Sc2ccc(Cl)cc21 : what is it? 71

Reported cytotoxicity at 10 µM for Fc1ccc([C@@H]2CCNC[C@H]2COc2ccc3c(c2)OCO3)cc1 : what is it? 97

Reported cytotoxicity at 10 µM for CSc1ccc2c(c1)N(CCC1CCCCN1C)c1ccccc1S2 (centres unmarked) : what is it? 38

---

# Tested on: blastic cells from AML patients
# Test: Inhibition of viability of fresh leukemic cells (trypan blue exclusion)
# Assay type: cell-based, human
# Condition parameters: Homo sapiens, AML3, 72 h, patient ID 8, FAB AML3; 10^-6 M; day 3; read-out: In Vitro Percent Inhibition of Viability
Property measured: cytotoxicity at 1 µM (%)
Write it as a number; the unit % goes unstated.

Known cytotoxicity at 1 µM results, listed for orientation:
CN(C)CCCN1c2ccccc2Sc2ccc(Cl)cc21 [S59, chlorpromazine] :: 14
OCCN1CCN(CCCN2c3ccccc3Sc3ccc(Cl)cc32)CC1 [S64, perphenazine] :: 18

Reported cytotoxicity at 1 µM for CSc1ccc2c(c1)N(CCC1CCCCN1C)c1ccccc1S2 (centres unmarked) [S60, thioridazine] : what is it? 0

Reported cytotoxicity at 1 µM for CN[C@H]1CC[C@@H](c2ccc(Cl)c(Cl)c2)c2ccccc21 [SQ42, sertraline] : what is it? 36

Reported cytotoxicity at 1 µM for Fc1ccc([C@@H]2CCNC[C@H]2COc2ccc3c(c2)OCO3)cc1 [A37, Paroxetine] : what is it? 12

---

# Tested on: blastic cells from AML patients
# Test: Inhibition of viability of fresh leukemic cells (trypan blue exclusion)
# Type: cell-based, human
# Condition parameters: Homo sapiens, 72 h, patient ID 13, FAB AML5; 10^-6 M; day 3; read-out: In Vitro Percent Inhibition of Viability
Here, each record is paired with measured cytotoxicity at 1 µM data.

Known cytotoxicity at 1 µM results, listed for orientation:
CN(C)CCCN1c2ccccc2Sc2ccc(Cl)cc21 [S59, chlorpromazine] :: 13%
Fc1ccc([C@@H]2CCNC[C@H]2COc2ccc3c(c2)OCO3)cc1 [A37, Paroxetine] :: 53%
CN[C@H]1CC[C@@H](c2ccc(Cl)c(Cl)c2)c2ccccc21 [SQ42, sertraline] :: 11%
CSc1ccc2c(c1)N(CCC1CCCCN1C)c1ccccc1S2 (centres unmarked) [S60, thioridazine] :: 15%

Reported cytotoxicity at 1 µM for OCCN1CCN(CCCN2c3ccccc3Sc3ccc(Cl)cc32)CC1 [S64, perphenazine] : what is it? 0%

---

Here, each record is paired with measured cytotoxicity at 1 µM data.
# System: blastic cells from AML patients
# Test: Inhibition of viability of fresh leukemic cells (trypan blue exclusion)
# Format: cell-based, human
# Condition parameters: Homo sapiens, AML3, 72 h, patient ID 9, FAB AML3; 10^-6 M; day 3; read-out: In Vitro Percent Inhibition of Viability
Write it as a number; the unit % goes unstated.

Known cytotoxicity at 1 µM results, listed for orientation:
CSc1ccc2c(c1)N(CCC1CCCCN1C)c1ccccc1S2 (centres unmarked) :: 0
OCCN1CCN(CCCN2c3ccccc3Sc3ccc(Cl)cc32)CC1 :: 0
CN(C)CCCN1c2ccccc2Sc2ccc(Cl)cc21 :: 11
CN[C@H]1CC[C@@H](c2ccc(Cl)c(Cl)c2)c2ccccc21 :: 38

Could you now look at the following compound, please?
Which cytotoxicity at 1 µM is reported with blastic cells from AML patients for this entry: Fc1ccc([C@@H]2CCNC[C@H]2COc2ccc3c(c2)OCO3)cc1 ? 53

---

Here, each record is paired with measured cytotoxicity at 1 µM data.
# Test system: blastic cells from AML patients
# Test: Inhibition of viability of fresh leukemic cells (trypan blue exclusion)
# Format: cell-based, human
# Condition parameters: Homo sapiens, 72 h, patient ID 4, FAB AML2; 10^-6 M; day 3; read-out: In Vitro Percent Inhibition of Viability
Write it as a number; the unit % goes unstated.

Known cytotoxicity at 1 µM results, listed for orientation:
Fc1ccc([C@@H]2CCNC[C@H]2COc2ccc3c(c2)OCO3)cc1 :: 21
OCCN1CCN(CCCN2c3ccccc3Sc3ccc(Cl)cc32)CC1 :: 25
CSc1ccc2c(c1)N(CCC1CCCCN1C)c1ccccc1S2 (centres unmarked) :: 19
CN[C@H]1CC[C@@H](c2ccc(Cl)c(Cl)c2)c2ccccc21 :: 18

Could you now look at the following molecule, please?
Reported cytotoxicity at 1 µM for CN(C)CCCN1c2ccccc2Sc2ccc(Cl)cc21 : what is it? 9

---

Here, each record is paired with measured cytotoxicity at 10 µM data.
# Test system: blastic cells from AML patients
# Test: Inhibition of viability of fresh leukemic cells (trypan blue exclusion)
# Format: cell-based, human
# Condition parameters: Homo sapiens, 72 h, MEAN over AML patients; 10^-5 M; day 3; read-out: In Vitro Percent Inhibition of Viability, MEAN
Where a name gives a salt, the structure may show the parent alone.

Known cytotoxicity at 10 µM results, listed for orientation:
OCCOCCN1CCN(C(c2ccccc2)c2ccc(Cl)cc2)CC1 (stereo not drawn) [hydroxyzine, hydroxyzine dihydrochloride] :: 12%
OCCN1CCN(CCCN2c3ccccc3Sc3ccc(Cl)cc32)CC1 :: 36%
CN(C)CCCN1c2ccccc2Sc2ccc(Cl)cc21 :: 37%
CN[C@H]1CC[C@@H](c2ccc(Cl)c(Cl)c2)c2ccccc21 :: 61%
Fc1ccc([C@@H]2CCNC[C@H]2COc2ccc3c(c2)OCO3)cc1 :: 55%

Could you now look at the following compound, please?
Reported cytotoxicity at 10 µM for CSc1ccc2c(c1)N(CCC1CCCCN1C)c1ccccc1S2 (stereo not drawn) : what is it? 53%

---

# System: blastic cells from AML patients
# Test: Inhibition of viability of fresh leukemic cells (trypan blue exclusion)
# Type: cell-based, human
# Condition parameters: Homo sapiens, 72 h, patient ID 3, FAB AML2; 10^-6 M; day 3; read-out: In Vitro Percent Inhibition of Viability
Here, each record is paired with measured cytotoxicity at 1 µM data.
Write it as a number; the unit % goes unstated.

Known cytotoxicity at 1 µM results, listed for orientation:
OCCN1CCN(CCCN2c3ccccc3Sc3ccc(Cl)cc32)CC1 :: 12
CN(C)CCCN1c2ccccc2Sc2ccc(Cl)cc21 :: 7
CN[C@H]1CC[C@@H](c2ccc(Cl)c(Cl)c2)c2ccccc21 :: 16

Reported cytotoxicity at 1 µM for CSc1ccc2c(c1)N(CCC1CCCCN1C)c1ccccc1S2 (centres unmarked) : what is it? 12

Reported cytotoxicity at 1 µM for Fc1ccc([C@@H]2CCNC[C@H]2COc2ccc3c(c2)OCO3)cc1 : what is it? 25

---

# Test system: blastic cells from AML patients
# Test: Inhibition of viability of fresh leukemic cells (trypan blue exclusion)
# Format: cell-based, human
# Condition parameters: Homo sapiens, 72 h, patient ID 15, FAB AML5; 10^-5 M; day 3; read-out: In Vitro Percent Inhibition of Viability
// boundary case: cytotoxicity at 10 µM equal to 20% maps to 0 (no); strictly smaller maps to 1 (yes)

Worked examples follow.
CSc1ccc2c(c1)N(CCC1CCCCN1C)c1ccccc1S2 (centres unmarked) :: 0 (no)
CN[C@H]1CC[C@@H](c2ccc(Cl)c(Cl)c2)c2ccccc21 :: 0 (no)
Fc1ccc([C@@H]2CCNC[C@H]2COc2ccc3c(c2)OCO3)cc1 :: 0 (no)

Query molecule follows.
Dear colleague, could you confirm whether cytotoxicity at 10 µM of OCCN1CCN(CCCN2c3ccccc3Sc3ccc(Cl)cc32)CC1 falls below 20%? Thanks. 1 (yes)

---

Here, each record is paired with measured cytotoxicity at 1 µM data.
# Test system: blastic cells from AML patients
# Test: Inhibition of viability of fresh leukemic cells (trypan blue exclusion)
# Assay type: cell-based, human
# Condition parameters: Homo sapiens, AML1, 72 h, patient ID 1, FAB AML1; 10^-6 M; day 3; read-out: In Vitro Percent Inhibition of Viability
Value and unit, in that order.

Known cytotoxicity at 1 µM results, listed for orientation:
CN(C)CCCN1c2ccccc2Sc2ccc(Cl)cc21 :: 8%
CN[C@H]1CC[C@@H](c2ccc(Cl)c(Cl)c2)c2ccccc21 :: 17%
OCCN1CCN(CCCN2c3ccccc3Sc3ccc(Cl)cc32)CC1 :: 8%
Fc1ccc([C@@H]2CCNC[C@H]2COc2ccc3c(c2)OCO3)cc1 :: 0%

Could you now look at the following compound, please?
Reported cytotoxicity at 1 µM for CSc1ccc2c(c1)N(CCC1CCCCN1C)c1ccccc1S2 (centres unmarked) : what is it? 8%

Origin of the recorded values: patent US20040072824A1
